inhibition at 10 µM reference
# TARGET OF ASSAY: human NCX1 (Homo sapiens, UniProt P32418)
# Construct: expressed in transfected cells
# METHOD: NCX1 inhibition, forward mode (Ca2+ efflux out of cells), FLIPR calcium assay
# Format: cell-based
# RUN CONDITIONS: 10 μM, CHO cells stably expressing human NCX1, read-out: Inhibition in % at 10 μM, IC50 value not determined
# Procedure: The sodium/calcium exchanger NCX1 can transport calcium ions and sodium ions through the cell membrane. The transport is an exchange of Ca^2+ and Na^+ in two directions depending on membrane potential and ion gradients. […] The effect of the compounds of the invention on NCX1 was determined in CHO cells stably expressing human NCX1 (gene symbol SLC8A1; cf. WO 2009/115238). […]
API: value field is a number in %; no unit string.

INSERT INTO results (compound, measured_value) VALUES
  ('Cc1nn(C)c(C)c1S(=O)(=O)NCc1cnc(Oc2ccc3c(c2)CCC(c2ccccc2)O3)s1 (stereo not shown)', 20),
  ('O=C(NCc1ccncn1)c1cnc(Oc2ccc3c(c2)CCC(c2ccccc2)O3)s1 (stereo not shown)', 27),
  ('c1ccc(C2CCc3cc(Oc4ncc(CNCc5cn6ccsc6n5)s4)ccc3O2)cc1 (stereo not shown)', 46);

If you can, please state the reported inhibition at 10 µM value of CCOC(=O)[C@@H]1CCCC[C@@H]1NC(=O)c1cnc(Oc2ccc3c(c2)CC[C@@H](c2ccccc2)O3)s1 . 17

====

In this section, each of the compounds is paired with its reported pIC50.
# TARGET OF ASSAY: human NCX1 (Homo sapiens)
# Construct: expressed in transfected cells
# METHOD: NCX1 inhibition, reverse mode (Ca2+ influx into cells), FLIPR Fluo-4 assay
# Assay type: cell-based
# RUN CONDITIONS: inhibition of NCX1 in reverse mode (Ca2+ influx into cells); read-out: NCX1rv IC50
# Method: The sodium/calcium exchanger NCX1 can transport calcium ions and sodium ions through the cell membrane. The transport is an exchange of Ca^2+ and Na^+ in two directions depending on membrane potential and ion gradients. […] The effect of the compounds of the invention on NCX1 was determined in CHO cells stably expressing human NCX1 (gene symbol SLC8A1; cf. WO 2009/115238). […]
A value of pIC50 is the negative decimal logarithm of a concentration given in moles per litre.

Here is how some compounds turned out for pIC50.
INSERT INTO results (compound, measured_value) VALUES
  ('O=C(NCc1cnc(Oc2ccc3c(c2)CCC(c2ccccc2)O3)s1)c1ccncn1 (centres unmarked) [compound 89]', 6.70),
  ('CC1Cc2cc(Oc3ncc(C(=O)NCCO)s3)ccc2OC1c1ccccc1 (centres unmarked) [compound 364]', 6.02);

Lab note: next compound to report on.
Field request: pIC50 | item: O=C(NCc1ccnc(Cl)c1)c1cnc(Oc2ccc3c(c2)CCC(c2cnccn2)O3)s1 (centres unmarked) [compound 310] 5.59

====

IC50 values for the molecules below.
# TARGET OF ASSAY: human NCX1 (Homo sapiens, UniProt P32418)
# Construct: expressed in transfected cells
# METHOD: NCX1 inhibition, reverse mode (Ca2+ influx into cells), FLIPR Fluo-4 assay
# Format: cell-based
# RUN CONDITIONS: inhibition of NCX1 in reverse mode (Ca2+ influx into cells); read-out: NCX1rv IC50
Lab book: enter the figure in nM, no units written.

For the molecule shown here, CC[C@H](NC(=O)c1cnc(Oc2ccc3c(c2)CCC(c2ccccc2)O3)s1)c1ccc(OC)nc1 (stereo partly shown) , give the reported IC50. 400

Field request: IC50 | item: COC(=O)[C@@H](C)NC(=O)c1cnc(Oc2ccc3c(c2)CCC(c2cccnc2)O3)s1 (stereo partly shown) 3100

Could you share which IC50 value was measured for O=C(NCc1ccno1)c1cnc(Oc2ccc3c(c2)CC[C@@H](c2ccccc2)O3)s1 ? 100

Bench note: what IC50 did Cc1nccc(CNC(=O)c2cnc(Oc3ccc4c(c3)CCC(c3ccccc3)O4)s2)n1 (stereo not shown) show? 100
